Documented apparent KD of MS2 coat protein across a set of sequences
System: MS2 coat protein
Test Protocol: apparent KD of MS2 coat protein, switch OFF state (with FMN for OFF switches, without FMN for ON switches); designed switch direction (-1 OFF switch, 1 ON switch): -1; higher = weaker reporter binding
Recorded Conditions: FMN input: 0 or 200 uM; Eterna round: R93 (includes R88 designs)
Parameter Measured: apparent KD of MS2 coat protein (µM)

INSERT INTO measurements (monomer_sequence, tested_target, parameter_measured, measured_result) VALUES
  ('GAAAAACAUGAGGAUCACCCAUGUCAGGAUAUGCAGAAAAAGAAAAAAAGAAAAGAAAGUAGAAGGGACAAAAG [Mat - Same state - Mayanna Mod - D106]', 'MS2 coat protein', 'apparent KD of MS2 coat protein', 0.0286),
  ('AAGAAUCAAGGAUAUACAAGGAAGAAAGAAAAGAAAAGAAAACAUGAGGAUCACCCAUGUAGAAGGUGAUAGAA [EteRNA is fun!]', 'MS2 coat protein', 'apparent KD of MS2 coat protein', 0.846),
  ('AAAAAGGCAGGAUAUACAUGAGGAUCACCCAUGUGAAAAAAAAAAAAAAAAAAAAAGUGUAGAAGGGUCAAAAA [Exclusion 3 - Omei 2]', 'MS2 coat protein', 'apparent KD of MS2 coat protein', 0.0514),
  ('AAAAAGUCAGGAUAUGUGAAAAAAAAAAAAAAAAAAAAAAAACAGAAGGGACAUGAGGAUCACCCAUGUAAAAA [water''s exclusion 4 2nd]', 'MS2 coat protein', 'apparent KD of MS2 coat protein', 0.0464),
  ('GAAAACAUAGGAUAUACAUGAGGAUCACCCAUGUUAAAAUAAAGAAAGGGAGAAAUAAGUAGAAGGAUGAAAAA [Mat - Mod of Meechl]', 'MS2 coat protein', 'apparent KD of MS2 coat protein', 0.0298),
  ('CUUAAGUCAGGAUAUGUCAAAAGUCACAAAAGUGACAAAAGACAGAAGGGACAUGAGGAUCACCCAUGUAAAAA [Starry Exclusion 4.5 (starryjess round 1 mod)]', 'MS2 coat protein', 'apparent KD of MS2 coat protein', 0.139);
